- assay_comment: Clearance in Wistar Han rats at 0.05 mg/kg, iv
- Assay type: ADME, organism-based
- condition_description: rat, in vivo
Param label: returns label 1 when clearance < 30 mL/min/kg, returns label 0 otherwise, including exact equality.

query_smiles=Cc1nccc(N2CC3(CC3)c3nc(C4(NC(=O)c5ccc(F)cc5)CC4)ccc32)n1 group_label="label 1"

Task: Quick check: clearance of `COC(=O)N1c2ccc(C3(NC(=O)c4ccc(F)cc4)CC3)cc2[C@H]2CC[C@H]21` under 30 mL/min/kg?
Output: label 0

Task: Query `O=C(Nc1ccc(Cl)cc1)C1(c2ccc3c(n2)CCN3c2ccccn2)CCC1` next
Output: label 0

Task: Query `O=C(OC1CC1)N1CCc2nc(C3(C(=O)Nc4ccc(F)cc4)CCC3)ccc21` next
Output: label 0

Task: Query `COC(=O)N1c2ccc(C3(NC(=O)c4ccc(F)cc4)CC3)cc2[C@@H]2CC[C@@H]21` next
Output: label 1

* * *

This section presents compounds with their documented IC50 values.
- tested_target: Indoleamine 2,3-dioxygenase 1 (Homo sapiens)
- assay_comment: Inhibition of human IDO1 in human Hela cells
- Format: cell-based
- Sequence (P14902 whole entry): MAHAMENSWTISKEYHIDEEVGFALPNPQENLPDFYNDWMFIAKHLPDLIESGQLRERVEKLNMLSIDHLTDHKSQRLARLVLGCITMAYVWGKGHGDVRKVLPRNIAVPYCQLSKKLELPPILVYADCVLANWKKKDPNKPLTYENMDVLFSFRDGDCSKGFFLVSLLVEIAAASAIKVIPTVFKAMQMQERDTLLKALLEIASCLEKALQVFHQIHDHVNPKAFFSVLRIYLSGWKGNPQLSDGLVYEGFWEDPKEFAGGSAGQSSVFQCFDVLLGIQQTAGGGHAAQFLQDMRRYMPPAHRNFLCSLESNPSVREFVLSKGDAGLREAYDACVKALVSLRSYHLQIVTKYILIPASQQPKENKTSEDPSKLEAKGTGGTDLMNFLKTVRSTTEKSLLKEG

Worked set:
query_smiles=CC(C)C(=O)N1CCc2cc(CNC(=O)c3ccco3)ccc21 result="92 nM"
query_smiles=Cc1nccc(N2CC3(CC3)c3nc(C4(NC(=O)c5ccc(F)cc5)CC4)ccc32)n1 result="34 nM"
query_smiles=Cc1nccc(N2c3ccc(C4(NC(=O)c5ccc(F)cc5)CC4)cc3[C@@H]3CC[C@@H]32)n1 result="5 nM"
query_smiles=O=C(NCc1ccc2c(c1)CCN2C(=O)c1cccc(Cl)c1)c1ccc(Cl)cc1 result="90 nM"
query_smiles=O=C(OC1CC1)N1CCc2cc(C3(C(=O)Nc4ccc(F)cc4)CCC3)ccc21 result="1.4 nM"

Continue with the next compound.
Task: Hi! What's the reported IC50 for `O=C(NC1(c2ccc3c(n2)CCN3c2ccnc(C(F)(F)F)n2)CCC1)c1ccc(Cl)cc1` on Indoleamine 2,3-dioxygenase 1 (Homo sapiens)?
Output: 93 nM

* * *

- assay_comment: Mean residence time in Wistar Han rat at 0.5 mg/kg, iv
- Type: ADME, organism-based
- condition_description: in vivo
Param label: returns t when MRT < 2 h, returns f otherwise, including exact equality.

The examples below pair each entry with its known result.
query_smiles=O=C(NC1(c2ccc3c(n2)CCN3C(=O)OC2CC2)CC1)c1ccc(Cl)cc1 group_label=f
query_smiles=Cc1nccc(N2CC3(CC3)c3nc(C4(NC(=O)c5ccc(F)cc5)CC4)ccc32)n1 group_label=f
query_smiles=O=C(Nc1ccc(Cl)cc1)C1(c2ccc3c(n2)CCN3c2ccccn2)CCC1 group_label=f

Task: Quick check: MRT of `COC(=O)N1c2ccc(C3(NC(=O)c4ccc(F)cc4)CC3)cc2[C@H]2CC[C@H]21` under 2 h?
Output: t

Task: Query `Cc1nccc(N2c3ccc(C4(NC(=O)c5ccc(F)cc5)CC4)cc3[C@H]3C[C@H]32)n1` next
Output: f

Task: Query `COC(=O)N1c2ccc(C3(NC(=O)c4ccc(F)cc4)CC3)cc2[C@@H]2CC[C@@H]21` next
Output: t

Task: Query `O=C(NC1(c2ccc3c(n2)CCN3C(=O)OC2CC2)CCC1)c1ccc(Cl)cc1` next
Output: f

Task: Query `O=C(C1CC1)N1CCc2nc(C3(C(=O)Nc4ccc(F)cc4)CCC3)ccc21` next
Output: t

Task: Query `O=C(OC1CC1)N1CCc2nc(C3(C(=O)Nc4ccc(F)cc4)CCC3)ccc21` next
Output: f

Task: Query `O=C(OC1CC1)N1CCc2cc(C3(C(=O)Nc4ccc(F)cc4)CCC3)ccc21` next
Output: t

* * *

This section presents molecules with their documented pIC50 values.
- tested_target: Indoleamine 2,3-dioxygenase 1 (Homo sapiens, UniProt P14902)
- assay_comment: Inhibition of human IDO1 in human Hela cells
- Type: cell-based
Reminder that pIC50 means the negative base-10 logarithm of the concentration expressed in mol/L.

Worked set:
query_smiles=O=C(Nc1ccc(F)cc1)C1(c2ccc3c(c2)CCN3c2ccccn2)CCC1 numeric_readout=8.51
query_smiles=O=C(OC1CC1)N1CCc2nc(C3(C(=O)Nc4ccc(F)cc4)CCC3)ccc21 numeric_readout=8.57
query_smiles=O=C(Nc1ccc(F)cc1)C1(c2ccc3c(n2)CCN3c2ccnc(C(F)(F)F)n2)CCC1 numeric_readout=6.90
query_smiles=Cc1nccc(N2c3ccc(C4(NC(=O)c5ccc(F)cc5)CC4)cc3[C@H]3CC[C@H]32)n1 numeric_readout=8.42
query_smiles=O=C(C1CC1)N1CCc2nc(C3(C(=O)Nc4ccc(F)cc4)CCC3)ccc21 numeric_readout=8.10

Task: For the molecule shown here, `O=C(OC1CC1)N1CCc2nc(C3(C(=O)Nc4ccc(Cl)cc4)CCC3)ccc21` , give the reported pIC50.
Output: 8.70

Task: Query `Cc1nccc(N2CCc3nc(C4(NC(=O)c5ccc(Cl)cc5)CCC4)ccc32)n1` next
Output: 7.34

* * *

- tested_target: Indoleamine 2,3-dioxygenase 1 (Homo sapiens, UniProt P14902)
- assay_comment: Inhibition of human IDO1 assessed as unbound compound concentration by human whole blood assay
- Type: tissue-based
assay_metric: pIC50
Reminder that pIC50 means the negative base-10 logarithm of the concentration expressed in mol/L.

query_smiles=O=C(c1cccc(Cl)c1)N1CCc2nc(C3(C(=O)Nc4ccc(F)cc4)CCC3)ccc21 tested_target="Indoleamine 2,3-dioxygenase 1 (Homo sapiens, UniProt P14902)" numeric_readout=9.08
query_smiles=O=C(NC1(c2ccc3c(n2)CCN3C(=O)OC2CC2)CC1)c1ccc(Cl)cc1 tested_target="Indoleamine 2,3-dioxygenase 1 (Homo sapiens, UniProt P14902)" numeric_readout=7.96
query_smiles=O=C(C1CC1)N1CCc2nc(C3(C(=O)Nc4ccc(F)cc4)CCC3)ccc21 tested_target="Indoleamine 2,3-dioxygenase 1 (Homo sapiens, UniProt P14902)" numeric_readout=7.54
query_smiles=COC(=O)N1c2ccc(C3(NC(=O)c4ccc(F)cc4)CC3)cc2[C@H]2CC[C@H]21 tested_target="Indoleamine 2,3-dioxygenase 1 (Homo sapiens, UniProt P14902)" numeric_readout=8.39
query_smiles=O=C(OC1CC1)N1CCc2cc(C3(C(=O)Nc4ccc(F)cc4)CCC3)ccc21 tested_target="Indoleamine 2,3-dioxygenase 1 (Homo sapiens, UniProt P14902)" numeric_readout=9.35

Task: For the compound shown here, `O=C(NC1(c2ccc3c(n2)CCN3C(=O)OC2CC2)CCC1)c1ccc(Cl)cc1` , give the reported pIC50.
Output: 9.20

Task: Query `O=C(Nc1ccc(Cl)cc1)C1(c2ccc3c(n2)CCN3c2ccccn2)CCC1` next
Output: 9.47

* * *

- tested_target: Indoleamine 2,3-dioxygenase 1 (Homo sapiens, UniProt P14902)
- assay_comment: Inhibition of human IDO1 in HEK293 cells at 10 uM relative to control
- Format: cell-based
- Sequence (P14902 whole entry, looked up): as the sequence (P14902 whole entry) above
assay_metric: inhibition (%)
Output spec: scalar in %, unitless text.

Worked set:
query_smiles=CC(C)C(=O)N1CCc2cc(CNC(=O)c3ccc(Cl)cc3)ccc21 numeric_readout=92
query_smiles=CCC(=O)N1CCc2cc(CNC(=O)c3ccnn3C)ccc21 numeric_readout=14
query_smiles=CC(C)CC(=O)N1CCc2cc(CNC(=O)c3cccnc3)ccc21 numeric_readout=86
query_smiles=CC(C)CC(=O)N1CCc2cc(CNC(=O)c3ccco3)ccc21 numeric_readout=100
query_smiles=CCC(=O)N1CCc2cc(CNC(=O)c3cccs3)ccc21 numeric_readout=89

Task: For the compound shown here, `CC(C)C(=O)N1CCc2cc(CNC(=O)c3cccs3)ccc21` , give the reported inhibition.
Output: 100

Task: Query `CC(=O)N1CCc2cc(CNC(=O)c3cccs3)ccc21` next
Output: 72

Task: Query `COCC(=O)NCc1ccc2c(c1)CCN2C(=O)CC(C)C` next
Output: 20

Task: Query `CC(C)NC(=O)NCc1ccc2c(c1)CCN2C(=O)c1ccccc1` next
Output: 45

Task: Query `CC(C)CC(=O)N1CCc2cc(CNC(=O)C3CC3)ccc21` next
Output: 35

Task: Query `CCCC(=O)NCc1ccc2c(c1)CCN2C(=O)CC(C)C` next
Output: 64

Task: Query `CCC(=O)N1CCc2cc(CNC(=O)c3cccc(Cl)c3)ccc21` next
Output: 77

Task: Query `CC(C)C(=O)N1CCc2cc(CNC(=O)c3ccccc3)ccc21` next
Output: 100

* * *

- assay_comment: Mean residence time in Beagle dog at 0.5 mg/kg, iv
- Format: ADME, organism-based, Canis lupus familiaris
- condition_description: in vivo
assay_metric: MRT (h)
Output spec: scalar in h, unitless text.

Task: For the compound shown here, `O=C(NC1(c2ccc3c(n2)CCN3C(=O)OC2CC2)CC1)c1ccc(Cl)cc1` , give the reported MRT.
Output: 4.9

* * *

- assay_comment: Unbound clearance in Beagle dog at 0.05 mg/kg, iv
- Assay type: ADME, organism-based, Canis lupus familiaris
- condition_description: in vivo
assay_metric: CL free (L/h/kg)
Output spec: scalar in L/h/kg, unitless text.

Task: For the compound shown here, `O=C(NC1(c2ccc3c(n2)CCN3C(=O)OC2CC2)CC1)c1ccc(Cl)cc1` , give the reported CL free.
Output: 288
